FYI, the data here is from the M2OR odorant receptor database.

Tested on: OR8U8
Sequence (as listed by the source): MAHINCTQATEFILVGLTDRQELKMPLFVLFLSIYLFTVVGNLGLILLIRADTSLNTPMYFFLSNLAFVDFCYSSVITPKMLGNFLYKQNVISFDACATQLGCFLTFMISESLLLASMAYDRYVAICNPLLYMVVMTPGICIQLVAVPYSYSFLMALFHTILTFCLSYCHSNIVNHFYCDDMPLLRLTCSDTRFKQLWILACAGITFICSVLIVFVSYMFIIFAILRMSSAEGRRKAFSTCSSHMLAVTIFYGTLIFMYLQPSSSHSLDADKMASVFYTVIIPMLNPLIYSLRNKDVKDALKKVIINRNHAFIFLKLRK
measurement-setup: stereoisomer not certain

- molecule: "CC1=C(O)C(=O)OC1C (centres undefined)"
  odorant receptor agonist call: "inactive"
- molecule: "CCC1OC(C)=C(O)C1=O (centres undefined)"
  odorant receptor agonist call: "inactive"
- molecule: "CCCC(S)CCOC(C)=O (centres undefined)"
  odorant receptor agonist call: "inactive"
- molecule: "CCC1OC(=O)C(O)=C1C (centres undefined)"
  odorant receptor agonist call: "inactive"

====

target-system: OR1G1 (Homo sapiens) (UniProt P47890)
Sequence (P47890 whole entry): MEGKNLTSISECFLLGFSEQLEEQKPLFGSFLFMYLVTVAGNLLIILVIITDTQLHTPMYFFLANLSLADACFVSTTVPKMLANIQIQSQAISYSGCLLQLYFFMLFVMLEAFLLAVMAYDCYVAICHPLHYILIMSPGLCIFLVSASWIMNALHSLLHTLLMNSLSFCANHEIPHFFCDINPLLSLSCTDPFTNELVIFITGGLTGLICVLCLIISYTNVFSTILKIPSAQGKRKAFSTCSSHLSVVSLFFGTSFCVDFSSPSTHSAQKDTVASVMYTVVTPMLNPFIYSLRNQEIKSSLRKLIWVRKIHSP
measurement-setup: stereoisomer not certain
Respond only with the outcome that fits, drawn from active, inactive

The following molecules have reported results that may help.
- molecule: "CCCCCCCCO"
  target-system: "OR1G1 (Homo sapiens) (UniProt P47890)"
  assigned-category: "active"
- molecule: "CCCCCCCC(C)O (centres undefined)"
  target-system: "OR1G1 (Homo sapiens) (UniProt P47890)"
  assigned-category: "active"
- molecule: "c1ccc2scnc2c1"
  target-system: "OR1G1 (Homo sapiens) (UniProt P47890)"
  assigned-category: "active"
- molecule: "Cc1ccc(C(C)C)c(O)c1"
  target-system: "OR1G1 (Homo sapiens) (UniProt P47890)"
  assigned-category: "active"
- molecule: "CCCCCCCC(=O)OC"
  target-system: "OR1G1 (Homo sapiens) (UniProt P47890)"
  assigned-category: "active"
- molecule: "C=C(C)C1CC=C(C)CC1 (centres undefined)"
  target-system: "OR1G1 (Homo sapiens) (UniProt P47890)"
  assigned-category: "active"
- molecule: "CCCCCCCCCCCCO"
  target-system: "OR1G1 (Homo sapiens) (UniProt P47890)"
  assigned-category: "active"
- molecule: "CC(C)CCCC(C)(C)O"
  target-system: "OR1G1 (Homo sapiens) (UniProt P47890)"
  assigned-category: "inactive"

Alright, here's another molecule for you.
## Task // param item: CC1CCC(C(C)C)C(=O)C1 (centres undefined) ; yields the recorded call
## Result inactive

====

Test system: O1440
Sequence (whole entry): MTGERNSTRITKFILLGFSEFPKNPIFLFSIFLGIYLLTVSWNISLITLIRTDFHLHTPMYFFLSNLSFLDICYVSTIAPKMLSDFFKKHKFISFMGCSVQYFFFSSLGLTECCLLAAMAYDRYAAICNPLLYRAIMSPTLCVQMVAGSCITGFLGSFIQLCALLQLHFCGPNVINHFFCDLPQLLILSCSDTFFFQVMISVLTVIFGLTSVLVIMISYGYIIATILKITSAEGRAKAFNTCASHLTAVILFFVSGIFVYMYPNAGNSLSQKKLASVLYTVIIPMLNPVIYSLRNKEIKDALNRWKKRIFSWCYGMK
measurement-setup: stereoisomer not certain
Respond only with the outcome that fits, drawn from true (1) = active, false (0) = inactive

The following compounds have reported results that may help.
- compound: "CCC(=O)OCC(C)(C)OC(C)C1CCCC(C)(C)C1 (stereo unspecified)"
  assigned-category: "false (0)"
- compound: "C1CCCCCCCCCCCCCC1"
  assigned-category: "false (0)"
- compound: "CC1CCCCCCCCCCCC(=O)C1 (stereo unspecified)"
  assigned-category: "true (1)"
- compound: "O=C1CCCCCCCCCC1"
  assigned-category: "false (0)"

## Task // param item: O=C1CCCC=CCCCCCCCCCC1 ; yields the recorded call
## Result true (1)

## Task // param item: CC1CC=CCCCCCCCCC(=O)C1 (stereo unspecified) ; yields the recorded call
## Result true (1)

## Task // param item: O=C1CCCCCCCCCCCCCC1 ; yields the recorded call
## Result true (1)

## Task // param item: CC1C(C)(C)C2=C(C(=O)CCC2)C1(C)C (stereo unspecified) ; yields the recorded call
## Result true (1)

## Task // param item: O=C1CCCCCCCCC1 ; yields the recorded call
## Result false (0)

## Task // param item: CC1CCCCCCCCCCCCC(=O)C1 (stereo unspecified) ; yields the recorded call
## Result true (1)

## Task // param item: OC1CCCCCCCCCCCCCC1 ; yields the recorded call
## Result true (1)

====

target-system: UniProt E9Q4X7
Sequence (E9Q4X7 as listed by the source): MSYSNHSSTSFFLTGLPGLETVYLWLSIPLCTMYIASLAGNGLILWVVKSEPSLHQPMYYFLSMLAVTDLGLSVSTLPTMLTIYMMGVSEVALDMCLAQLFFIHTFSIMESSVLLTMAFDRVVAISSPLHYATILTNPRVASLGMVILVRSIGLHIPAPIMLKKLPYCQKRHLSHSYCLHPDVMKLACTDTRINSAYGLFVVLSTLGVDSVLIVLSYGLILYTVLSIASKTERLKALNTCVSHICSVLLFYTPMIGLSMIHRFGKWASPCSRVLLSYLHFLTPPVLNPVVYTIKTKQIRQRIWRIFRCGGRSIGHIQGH
measurement-setup: stereoisomer not certain
Respond only with the outcome that fits, drawn from Yes = active, No = inactive

The following compounds have reported results that may help.
- compound: "CC(C)=C1CCC(C)CC1=O (stereo not given)"
  assigned-category: "No"
- compound: "CCCCCCCO"
  assigned-category: "No"

## Task // param item: Cc1ccc(C(C)C)cc1 ; yields the recorded call
## Result No

## Task // param item: CCCC=O ; yields the recorded call
## Result No

## Task // param item: CCCCCC=CCCC=O ; yields the recorded call
## Result Yes

## Task // param item: CSSSC ; yields the recorded call
## Result No

## Task // param item: CCOC(=O)C(C)CC (stereo not given) ; yields the recorded call
## Result No

## Task // param item: OCCc1ccccc1 ; yields the recorded call
## Result No

## Task // param item: CC(C)CCN ; yields the recorded call
## Result No

## Task // param item: C1CCOC1 ; yields the recorded call
## Result No

====

target-system: OR2W1 (Homo sapiens)
measurement-setup: stereoisomer not certain
Respond only with the outcome that fits, drawn from active, inactive

- compound: "Cc1cnc(C)c(C)n1"
  assigned-category: "inactive"
- compound: "OCc1ccccc1"
  assigned-category: "inactive"
- compound: "Cc1occc1S"
  assigned-category: "inactive"
- compound: "CCCCCC=O"
  assigned-category: "inactive"

## Task // param item: CCCCC(=O)C(C)=O ; yields the recorded call
## Result inactive

## Task // param item: CCCCCC1CCCC(=O)O1 (centres undefined) ; yields the recorded call
## Result inactive

## Task // param item: CCCCCCCCS ; yields the recorded call
## Result active

## Task // param item: CCCCC(=O)CC(C)=O ; yields the recorded call
## Result active

## Task // param item: C=C(C)C1CCC(C)C(=O)C1 (centres undefined) ; yields the recorded call
## Result active

====

Test system: OR2W1
Sequence (as listed by the source): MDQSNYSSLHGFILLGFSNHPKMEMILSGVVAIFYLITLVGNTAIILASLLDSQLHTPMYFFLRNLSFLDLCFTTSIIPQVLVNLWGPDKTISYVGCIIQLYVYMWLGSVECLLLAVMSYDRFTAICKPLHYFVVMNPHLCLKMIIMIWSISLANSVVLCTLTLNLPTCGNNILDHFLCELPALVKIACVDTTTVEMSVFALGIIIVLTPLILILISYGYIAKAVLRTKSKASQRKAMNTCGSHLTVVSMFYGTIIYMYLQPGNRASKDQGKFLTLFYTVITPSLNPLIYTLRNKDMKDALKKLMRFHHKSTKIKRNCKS
measurement-setup: stereoisomer not certain
Respond only with the outcome that fits, drawn from true (active), false (inactive)

The following compounds have reported results that may help.
- compound: "CCCCCC(C)O (centres undefined)"
  target-system: "OR2W1"
  assigned-category: "true"
- compound: "OCC=Cc1ccccc1"
  target-system: "OR2W1"
  assigned-category: "true"
- compound: "CSSCc1ccco1"
  target-system: "OR2W1"
  assigned-category: "true"

## Task // param item: CCC=CCCC=O ; yields the recorded call
## Result true

## Task // param item: CCCCCCCC1CCC(=O)O1 (centres undefined) ; yields the recorded call
## Result true

## Task // param item: CCCCCC1CCC(=O)O1 (centres undefined) ; yields the recorded call
## Result true

## Task // param item: CSCc1ccccc1 ; yields the recorded call
## Result true

## Task // param item: CCCCC1CCC(=O)O1 (centres undefined) ; yields the recorded call
## Result true

====

target-system: UniProt Q8VGL0
Sequence (Q8VGL0 as listed by the source): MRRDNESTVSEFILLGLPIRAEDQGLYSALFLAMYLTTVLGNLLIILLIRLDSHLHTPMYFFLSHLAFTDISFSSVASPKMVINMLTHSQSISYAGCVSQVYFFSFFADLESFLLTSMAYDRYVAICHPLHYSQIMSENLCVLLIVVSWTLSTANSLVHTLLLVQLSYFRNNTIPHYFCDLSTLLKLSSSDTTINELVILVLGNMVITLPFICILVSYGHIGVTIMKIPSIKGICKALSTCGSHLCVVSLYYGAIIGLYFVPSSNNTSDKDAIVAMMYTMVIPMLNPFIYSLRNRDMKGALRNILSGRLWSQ
measurement-setup: stereoisomer not certain
Respond only with the outcome that fits, drawn from active, inactive

The following compounds have reported results that may help.
- compound: "CC(C)CS"
  target-system: "UniProt Q8VGL0"
  assigned-category: "inactive"
- compound: "CCC(C(=O)O)c1ccccc1 (configuration not stated)"
  target-system: "UniProt Q8VGL0"
  assigned-category: "inactive"

## Task // param item: C=CC(=O)CCCCC ; yields the recorded call
## Result inactive

## Task // param item: CC1CC=CCCCCCCCCCC(=O)C1 (configuration not stated) ; yields the recorded call
## Result inactive

## Task // param item: CCCCCCC(=O)[O-].[H+] ; yields the recorded call
## Result inactive

## Task // param item: CCCCCCO ; yields the recorded call
## Result inactive

## Task // param item: CCCCCOC(=O)CC ; yields the recorded call
## Result inactive

====

target-system: UniProt Q7TRN9
Sequence (whole entry): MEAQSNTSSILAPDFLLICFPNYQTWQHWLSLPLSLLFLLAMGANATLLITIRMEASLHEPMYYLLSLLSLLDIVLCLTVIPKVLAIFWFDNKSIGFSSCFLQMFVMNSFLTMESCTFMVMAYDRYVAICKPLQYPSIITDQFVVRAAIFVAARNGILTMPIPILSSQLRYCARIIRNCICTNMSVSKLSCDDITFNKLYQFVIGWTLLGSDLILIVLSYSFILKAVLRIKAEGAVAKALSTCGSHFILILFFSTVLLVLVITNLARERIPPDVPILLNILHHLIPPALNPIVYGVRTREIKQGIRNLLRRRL
measurement-setup: stereoisomer not certain
Respond only with the outcome that fits, drawn from active, inactive

The following compounds have reported results that may help.
- chemical-smiles: "CCCCCO"
  assigned-category: "inactive"
- chemical-smiles: "CCCCCCC(=O)[O-].[H+]"
  assigned-category: "active"
- chemical-smiles: "O=C([O-])CCCCC(=O)[O-].[H+].[H+]"
  assigned-category: "inactive"
- chemical-smiles: "CCCCCCO"
  assigned-category: "inactive"
- chemical-smiles: "CCCCCCCCCO"
  assigned-category: "active"
- chemical-smiles: "O=C(O)CCCCBr"
  assigned-category: "inactive"
- chemical-smiles: "O=C(O)CCCCCBr"
  assigned-category: "inactive"
- chemical-smiles: "O=C([O-])CCCCCCC(=O)[O-].[H+].[H+]"
  assigned-category: "inactive"

## Task // param item: O=C([O-])CCCCCCCC(=O)[O-].[H+].[H+] ; yields the recorded call
## Result inactive

## Task // param item: O=C(O)CCCCCC(=O)O ; yields the recorded call
## Result inactive

## Task // param item: CCCCCCCCC(=O)O ; yields the recorded call
## Result active

## Task // param item: CCCCCCCCO ; yields the recorded call
## Result active
